# experimentalTarget: Signal transducer and activator of transcription 1-alpha/beta (Homo sapiens)
# Sequence (P42224 whole entry): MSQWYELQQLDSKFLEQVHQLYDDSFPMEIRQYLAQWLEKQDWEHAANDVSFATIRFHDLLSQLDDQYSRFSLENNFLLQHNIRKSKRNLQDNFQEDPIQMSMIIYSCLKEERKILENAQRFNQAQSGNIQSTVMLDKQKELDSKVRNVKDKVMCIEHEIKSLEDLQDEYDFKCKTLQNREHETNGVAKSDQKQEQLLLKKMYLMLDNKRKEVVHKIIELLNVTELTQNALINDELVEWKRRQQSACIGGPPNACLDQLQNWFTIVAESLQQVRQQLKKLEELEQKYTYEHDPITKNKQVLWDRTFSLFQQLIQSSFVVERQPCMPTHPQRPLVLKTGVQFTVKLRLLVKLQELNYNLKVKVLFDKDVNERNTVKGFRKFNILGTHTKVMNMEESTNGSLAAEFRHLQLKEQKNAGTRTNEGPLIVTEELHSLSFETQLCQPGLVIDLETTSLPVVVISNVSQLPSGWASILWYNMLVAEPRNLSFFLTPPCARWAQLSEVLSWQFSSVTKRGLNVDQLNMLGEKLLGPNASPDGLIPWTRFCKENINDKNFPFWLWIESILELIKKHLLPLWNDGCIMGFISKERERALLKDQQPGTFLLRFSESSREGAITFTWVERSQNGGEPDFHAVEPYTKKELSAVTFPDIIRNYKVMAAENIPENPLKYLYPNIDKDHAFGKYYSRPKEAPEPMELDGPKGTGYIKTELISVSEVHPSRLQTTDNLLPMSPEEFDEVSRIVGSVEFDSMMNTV
recordedEndpoint: pKd
Give bare numbers, as −log10 of the molar value.

Study these solved cases before continuing.
molecule: O=C(O[C@@H]1Cc2c(O)cc(O)cc2O[C@@H]1c1cc(O)c(O)c(O)c1)c1cc(O)c(O)c(O)c1 [EPIGALOCATECHIN GALLATE]
pKd: 6.15
--
molecule: C=C(C)[C@@H](CC=C(C)C)C[C@@]12C[C@@H](CC=C(C)C)C(C)(C)[C@@](CC=C(C)C)(C(=O)C(C(=O)c3ccc(O)c(O)c3)=C1O)C2=O
pKd: 4.77

Quick one: give me pKd for each item below, same order please.
1. CC(C)=CCC/C(C)=C/C[C@@]12C[C@H](CC=C(C)C)C(C)(C)[C@@](CC=C(C)C)(C(=O)C(C(=O)c3ccc(O)c(O)c3)=C1O)C2=O
2. CC(C)=CCC[C@@]1(C)[C@H](CC=C(C)C)C[C@]2(CC=C(C)C)C(=O)[C@@]1(CC=C(C)C)C(=O)C(C(=O)c1ccc(O)c(O)c1)=C2O

**A:**
5.33
4.69
